- ASSAY_SYSTEM: SARS-CoV-2 RdRp (nsp12-nsp7-nsp8 complex) (Severe acute respiratory syndrome coronavirus 2, UniProt P0DTD1)
- TEST: biochemical
# key: entry, value: EC50
Quick reminder: number only, in nM, skip the unit.

Cc1cn([C@@H]2O[C@H](COP(=O)(O)OP(=O)(O)OP(=O)(O)O)C[C@H]2O)c(=O)[nH]c1=O [5-methyl-3’-dUTP] :: 107

Look up EC50 for this molecule: O=c1ccn([C@@H]2O[C@H](COP(=O)(O)OP(=O)(O)OP(=O)(O)O)C[C@H]2O)c(=O)[nH]1 [3’-dUTP] 751

Which EC50 is reported for this molecule? O=c1ccn([C@@H]2O[C@H](COP(=O)(O)OP(=O)(O)OP(=O)(O)O)[C@@H](O)[C@H]2O)c(=O)[nH]1 [UTP] 47.9
